Compiled IC50 measurements on Tyrosine-protein kinase JAK1 (Homo sapiens, UniProt P23458) taken from the literature.
reported.property: IC50

> print(dat)
                                test.smiles  experimental.value
1  CN(c1ncnc2[nH]ccc12)[C@H]1C[C@@H]2CN(C(=O)Cc3nn[nH]n3)C[C@@H]2C1               80 nM
2  C[C@H](Nc1nc(Nc2cn(C)cn2)nc(N2CCOCC2)n1)c1ccc(F)cc1               65 nM
3  CC(C)(O)c1cn2ccc(Nc3ncc(Cl)c(NC4CCN(c5ccc(C#N)cn5)CC4)n3)cc2n1              0.5 nM
4  Cn1c(C(=O)Nc2cccc3c2ccn3-c2ccnc(NC(=O)C3CC3)c2)cc2ccccc21           > 1000 nM
5  O=C1NCCCCOCc2cc(cc(N3CCOCC3)c2)Nc2nccc(n2)-c2ccc1cc2[N+](=O)[O-]    1000 to 10000 nM
6  CCOC(=O)CC(=O)Nc1cccc(-c2cnc3ccccc3n2)c1          > 10000 nM
7  N#CCC1(n2cc(-c3ncnc4[nH]ccc34)cn2)CN(C2CCN(C(=O)c3ccc(-c4ccc5ncccc5c4)c(F)c3)CC2)C1              ≤ 5 nM
8   C=CC(=O)Nc1cccc(Nc2nccc(Sc3ncccn3)n2)c1           > 1000 nM

====

Compiled IC50 measurements on Tyrosine-protein kinase JAK1 (Homo sapiens, UniProt P23458) taken from the literature.
reported.property: IC50

> print(dat)
                                   molecule  reported.property  experimental.value
1  Cc1cnc2nc1Nc1cccc(c1)CCNC(=O)c1ccc(cc1)-c1cnc(F)c(c1)N2               IC50             < 10 nM
2  CC(O)Cc1nc2cc(Nc3ncc(Cl)c(NC4CCN(c5ccc(C#N)nn5)CC4)n3)ccn2n1 (centres unmarked)               IC50              0.5 nM
3  CC[C@H](Cn1ccc2cnc(Nc3cnn(CC(=O)O)c3)nc21)C(C)C               IC50            < 100 nM
4  N#CCNC(=O)c1ccc(-c2nc(Nc3ccccc3)nc3ccsc23)cc1               IC50           > 1000 nM
5  COc1cccc(NC(=O)N2CCC(N3CC(CC#N)(n4cc(-c5ncnc6[nH]ccc56)cn4)C3)CC2)c1               IC50              ≤ 5 nM
6  CCN(CC)S(=O)(=O)N1CCC2(CCC(N(C)c3ncnc4[nH]ccc34)CC2)CC1               IC50          ≥ 10000 nM
7  C[C@H](Nc1nc(Nc2ccc[nH]c2=O)ncc1O)c1ccc(F)cn1               IC50            < 100 nM
8  COCC(=O)N1CCC2(CCC(N(C)c3ncnc4[nH]ccc34)CC2)CC1               IC50        10 to 100 nM

====

Compiled IC50 measurements on Tyrosine-protein kinase JAK1 (Homo sapiens) taken from the literature.
reported.property: IC50

> print(dat)
                                    compound  experimental.value
 1  CCN1CCN(c2ccc(Nc3ncc(C)c(Nc4ccc5cn[nH]c5c4)n3)cc2OC)CC1              7.7 nM
 2  COc1cc(Nc2nc(Nc3ccc(N4CCN(C)CC4)cc3)ncc2C)ccc1Cl             1.83 nM
 3  CN(c1ccc(O)cc1CNc1nc(-c2cc(F)c(O)cc2CC(F)(F)F)cc2[nH]nc(C(N)=O)c12)S(C)(=O)=O              2.1 nM
 4  N#CCC(=O)N1CCC[C@@H](Nc2c(-c3ncco3)cnc3[nH]ccc23)C1             ≤ 10 nM
 5  CN(C)S(=O)(=O)NC12CC(n3cnc4cnc5[nH]ccc5c43)(C1)C2               23 nM
 6  N#CCC1(n2cc(-c3ncnc4[nH]ccc34)cn2)CN([C@H]2CC[C@@H](Oc3cc(CN4CC[C@H](O)C4)cc(C(F)(F)F)n3)CC2)C1             < 10 nM
 7  O=C1NCCCCOCc2cc(ccc2N2CCOCC2)Nc2nccc(n2)-c2ccc1cc2OC(F)(F)F    1000 to 10000 nM
 8  CS(=O)(=O)N1CCC(Nc2ncc(C(F)(F)F)c(-c3cnn(CC(F)(F)F)c3)n2)CC1          ≥ 10000 nM
 9  Nc1cc2ccc1-c1ccnc(n1)Nc1ccc(OC3CCCOC3)c(c1)COCCCCNC2=O (stereo not shown)      101 to 1000 nM
10  CN(C)Cc1cc(C#N)cc(C(=O)N2CCC(N3CC(CC#N)(n4cc(-c5ncnc6[nH]ccc56)cn4)C3)CC2)c1              ≤ 5 nM
11  N#CCC(CN1CCN(C(=O)c2ccc(C#N)cc2F)CC1)n1ccc(-c2ncnc3[nH]ccc23)c1 (stereo not shown)             < 10 nM
12  CN(c1ncnc2[nH]ccc12)C1CCC2(CC1)CCN(C(=O)CCC(F)(F)F)CC2      100 to 1000 nM
13  Cc1cnc(Nc2ccc3c(c2)CN(C)C3)nc1N1CC(CC#N)(N2CCC3(CC2)COC3)C1             < 10 nM
14  O=c1[nH]c2cnc(-c3cnn4ccncc34)nc2n1CC1CCOCC1      100 to 1000 nM
15  C[C@@H](O)Cn1cc(Nc2nc(-c3cnn(C4(CC#N)COC4)c3)c3sccc3n2)cn1        50 to 500 nM
16  CCS(=O)(=O)N1CC(CC#N)(n2cc(-c3nc(Nc4ccc(-n5cncn5)cc4)nc4ccsc34)cn2)C1             < 50 nM
